# test details: Inhibition of ABCB1 in human HeLa S3 cells assessed as potentiation of vincristine-induced cytotoxicity by measuring vincristine IC50 at 2.5 uM measured after 72 hrs by SRB assay (Rvb = 4.55 +/- 0.28 nM)
quantity kind: IC50 (nM)
The figure you give is taken to be in nM; do not add the unit.

[[record]]
molecule_smiles = "COc1ccc(-c2cc(OC(C)=O)c3c(-c4cccs4)c(NC(=O)c4cccc(F)c4)oc3c2)cc1"
quantity_kind = "IC50"
measurement = 5.4

[[record]]
molecule_smiles = "COc1ccc(-c2cc(OC(C)=O)c3c(-c4cccs4)c(N(C(C)=O)C(C)=O)oc3c2)cc1"
quantity_kind = "IC50"
measurement = 5.7

[[record]]
molecule_smiles = "COc1ccc(-c2cc(OC(C)=O)c3c(-c4cccs4)c(NC(=O)c4ccccc4C)oc3c2)cc1"
quantity_kind = "IC50"
measurement = 5.1


Switching to the query record.
The recorded IC50 for entry COc1ccc(-c2cc(OC(C)=O)c3c(-c4cccs4)c(NC(=O)c4ccccc4Cl)oc3c2)cc1 equals 3.9
